Documented IC50 across a set of molecules
# Study target: CCR2 (Homo sapiens (Human))
# Sequence (P41597 whole entry, species assumed): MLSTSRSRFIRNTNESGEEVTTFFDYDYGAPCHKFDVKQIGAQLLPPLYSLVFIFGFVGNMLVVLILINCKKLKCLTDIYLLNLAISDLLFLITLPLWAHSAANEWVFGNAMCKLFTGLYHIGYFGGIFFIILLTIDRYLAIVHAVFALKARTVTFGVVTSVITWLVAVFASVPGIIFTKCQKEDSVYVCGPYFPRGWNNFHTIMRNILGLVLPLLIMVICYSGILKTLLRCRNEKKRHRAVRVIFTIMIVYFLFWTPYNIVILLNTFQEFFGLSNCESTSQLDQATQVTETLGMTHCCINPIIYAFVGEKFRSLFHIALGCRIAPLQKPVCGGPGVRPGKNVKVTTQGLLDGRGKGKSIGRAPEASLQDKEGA
# Experiment summary: Calcium activity on FLIPR Tetra in HEK-Gqi5 cells stably expressing CCR2
# Condition: FLIPR Tetra calcium assay
Observed property: IC50 (nM)

{"Smiles string": "O=S(=O)(Nc1cc(Cl)c(Cl)cc1NS(=O)(=O)c1cccs1)c1ccc(Cl)nc1", "Observed property": "IC50", "Readout value": 281}
{"Smiles string": "O=S(=O)(Nc1cccnc1NS(=O)(=O)c1cccs1)c1ccc(Cl)c(C(F)(F)F)c1", "Observed property": "IC50", "Readout value": 349}
{"Smiles string": "O=S(=O)(Nc1cc(Cl)c(Cl)cc1NS(=O)(=O)c1ccccc1F)c1cccs1", "Observed property": "IC50", "Readout value": 402}
{"Smiles string": "Cn1cnc(S(=O)(=O)Nc2ccc(Cl)cc2NS(=O)(=O)c2cc3ccccc3o2)c1", "Observed property": "IC50", "Readout value": 423}
{"Smiles string": "O=S(=O)(Nc1cc(Cl)c(Cl)cc1NS(=O)(=O)c1cc(Cl)cc(Cl)c1O)c1cccs1", "Observed property": "IC50", "Readout value": 482}
